Below: a set of entries, each annotated with reported remaining activity at 2000 µM.
# testedTarget: E. coli DdlB enzyme (D-alanine:D-alanine ligase) (Escherichia coli, UniProt P07862)
# Construct: made in house; host or cells: E. coli
# assayOverview: biochemical
# experimentalParameters: fragment library screening; tested concentration 2.0 mM; read-out: DdlB RA

substanceSmiles: Cc1cccc(-c2ccnc3c(C(=O)O)cnn23)c1
remaining activity at 2000 µM / %: 6
--
substanceSmiles: O=C(O)CC1CCN(c2ccc(Cl)nn2)CC1
remaining activity at 2000 µM / %: 90
--
substanceSmiles: O=C(O)c1ccc(N2Cc3ccccc3C2=O)cc1
remaining activity at 2000 µM / %: 82
--
substanceSmiles: O=C(O)c1ccccc1C(=O)NCc1ccccc1
remaining activity at 2000 µM / %: 98
--
substanceSmiles: O=C(O)c1cc(-c2cccnc2)nc2ccccc12
remaining activity at 2000 µM / %: 85
--
substanceSmiles: Cc1ccc2c(c1)CCCN2C(=O)CCC(=O)O
remaining activity at 2000 µM / %: 90
--
substanceSmiles: O=C(NCc1cc[nH]n1)[C@H]1CC=CC[C@H]1C(=O)O
remaining activity at 2000 µM / %: 88
--
substanceSmiles: O=C(Nc1cccnc1)[C@H]1CCCC[C@H]1C(=O)O
remaining activity at 2000 µM / %: 91
--
substanceSmiles: CCOc1ccc([C@@H](CC(=O)O)NC(C)=O)cc1
remaining activity at 2000 µM / %: 87
--
substanceSmiles: O=C(O)c1ccccc1C(=O)NCc1cccnc1
remaining activity at 2000 µM / %: 93
--
substanceSmiles: NC(=O)NCC(=O)N[C@H](Cc1c[nH]cn1)C(=O)O
remaining activity at 2000 µM / %: 91

###

Parameter remaining activity at 1700 µM: see the listing below.
# testedTarget: E. coli DdlB enzyme (D-alanine:D-alanine ligase) (Escherichia coli, UniProt P07862)
# Construct: made in house; host or cells: E. coli
# assayOverview: biochemical
# experimentalParameters: tested concentration 1.7 mM; read-out: DdlB RA

molecule: CC1Cc2ccccc2N1c1c(-c2ccccc2)c(=O)c1=O (stereo not drawn) [Compound E470-0446]
remaining activity at 1700 µM (%): 2.16
//
molecule: COc1ccc(OC)c(-c2oc3ccccc3c(=O)c2O)c1 [Compound 6877-0609]
remaining activity at 1700 µM (%): 102
//
molecule: Cc1ccc(C(=O)CC2(O)C(=O)Nc3ccccc32)c(C)c1 (stereo not drawn) [Compound 8010-6588]
remaining activity at 1700 µM (%): 93
//
molecule: O=C(O)c1nccnc1C(=O)Nc1ccc([N+](=O)[O-])cc1 [Compound C612-1047]
remaining activity at 1700 µM (%): 38
//
molecule: O=C(COc1cccc(Br)c1)Nc1nnc[nH]1 [Compound 4491-0732]
remaining activity at 1700 µM (%): 94
//
molecule: Cc1cccc(C2SC(C)C(=O)N2CC(=O)N(C)C)c1 (stereo not drawn) [Compound V017-7801]
remaining activity at 1700 µM (%): 98
//
molecule: Cc1ccc(-c2c(N(C)c3ccc(C)cc3)c(=O)c2=O)cc1 [Compound E470-0191]
remaining activity at 1700 µM (%): 73
//
molecule: NS(=O)(=O)c1ccc(NC(=O)CCC2CCCC2)cc1 [Compound Y204-2561]
remaining activity at 1700 µM (%): 87
//
molecule: Cc1ccc(NS(=O)(=O)c2cnc(O)[nH]c2=O)c(C)c1 [Compound D668-0040]
remaining activity at 1700 µM (%): 91
